Entry source: ChEMBL document CHEMBL3769390

molecular target: Induced myeloid leukemia cell differentiation protein Mcl-1 (Homo sapiens, UniProt Q07820); assay: Inhibition of recombinant Mcl-1 (residues 172-327) (unknown origin) using FITC-AHx-GQVGRQLAIIGDDINR-NH2 as substrate after 90 mins by fluorescence polarization anisotropy competition assay
Sequence (Q07820 whole entry, the tested form may be a part): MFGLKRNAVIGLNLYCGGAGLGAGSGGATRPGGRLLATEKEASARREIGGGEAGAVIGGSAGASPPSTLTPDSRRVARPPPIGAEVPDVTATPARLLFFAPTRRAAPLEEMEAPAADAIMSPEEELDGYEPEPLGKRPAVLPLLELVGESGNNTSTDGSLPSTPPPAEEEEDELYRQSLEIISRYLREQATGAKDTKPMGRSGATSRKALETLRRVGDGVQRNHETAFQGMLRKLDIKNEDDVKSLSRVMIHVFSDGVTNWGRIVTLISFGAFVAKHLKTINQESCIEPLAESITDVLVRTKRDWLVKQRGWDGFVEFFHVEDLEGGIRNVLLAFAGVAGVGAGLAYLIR
pKi: −log10 of the molar value.
measure-name: pKi

>>> print(df.to_string())
                            compound_string  measure_name  result
0  Cc1cc(OCCCc2c3n(c4c(-c5c(C)nn(C)c5C)cccc24)CCN(Cc2cccc(C(=O)O)c2)C3=O)cc(C)c1Cl           pKi  > 8.15

* * *

test: Antiproliferative activity against human ALMC2 cells after 72 hrs by Cell TiterGlo assay; format: functional, cell-based; settings: ALMC2, 72 h
pIC50: −log10 of the molar value.
measure-name: pIC50

>>> print(df.to_string())
                            compound_string  quantitative_readout
0  Cc1cc(OCCCc2c3n(c4c(-c5c(C)nn(C)c5C)cccc24)CCN(Cc2cccc(C(=O)O)c2)C3=O)cc(C)c1Cl                  4.47
1  Cc1cc(OCCCc2c3n(c4c(-c5c(C)nn(C)c5C)c(Cl)ccc24)CCCN(c2cccc(C(=O)O)c2)C3=O)cc(C)c1Cl                  4.68

* * *

experiment: Antiproliferative activity against human NCI-H929 cells after 72 hrs by Cell TiterGlo assay; type: functional, cell-based; conditions: NCI-H929, 72 h
Each entry below carries its reported IC50.
measure-name: IC50

>>> print(df.to_string())
                            compound_string  measure_name  result
0  Cc1cc(OCCCc2c3n(c4c(-c5c(C)nn(C)c5C)cccc24)CCN(Cc2cccc(C(=O)O)c2)C3=O)cc(C)c1Cl          IC50   15 µM
1  Cc1cc(OCCCc2c3n(c4c(-c5c(C)nn(C)c5C)c(Cl)ccc24)CCCN(c2cccc(C(=O)O)c2)C3=O)cc(C)c1Cl          IC50  6.3 µM

* * *

Measured Ki of individual entries
test: Inhibition of Bcl-xL (residues 1-209, loop 45 to 86 deleted) (unknown origin) using FITC-AHx-GQVGRQLAIIGDDINR-NH2 as substrate after 90 mins by fluorescence polarization anisotropy competition assay; parameters: species or system Homo sapiens
measure-name: Ki (nM)

>>> print(df.to_string())
                            compound_string  quantitative_readout
0  Cc1cc(OCCCc2c(C(=O)NCc3cc(C(=O)O)ccn3)[nH]c3c(-c4c(C)nn(C)c4C)cccc23)cc(C)c1Cl                  7900
1  Cc1cc(OCCCc2c3n(c4c(-c5c(C)nn(C)c5C)cccc24)CCN(Cc2cccc(C(=O)O)c2)C3=O)cc(C)c1Cl                  2200
2  Cc1cc(OCCCc2c3n(c4c(-c5c(C)nn(C)c5C)c(Cl)ccc24)CCCN(c2cccc(C(=O)O)c2)C3=O)cc(C)c1Cl                  1900
3  Cc1cc(OCCCc2c(C(=O)NCc3cc(C(=O)O)n(C)c3)[nH]c3c(-c4c(C)nn(C)c4C)cccc23)cc(C)c1Cl                  3540

* * *

target: Induced myeloid leukemia cell differentiation protein Mcl-1 (Homo sapiens, UniProt Q07820); test: Inhibition of recombinant Mcl-1 (residues 172-327) (unknown origin) using FITC-AHx-EARIAQELRRIGDEFNETYTR-NH2 as substrate after 90 mins by fluorescence polarization anisotropy competition assay
measure-name: Ki (nM)

In [3]: df
Out[3]:
                            compound_string  modifier  quantitative_readout
0  Cc1cc(OCCCc2c(C(=O)Nc3ccc(C#N)cc3)[nH]c3c(-c4c(C)nn(C)c4C)c(Cl)ccc23)cc(C)c1Cl         =                    51
1  Cc1cc(OCCCc2c3n(c4c(-c5c(C)nn(C)c5C)cccc24)CCN(Cc2cccc(C(=O)O)c2)C3=O)cc(C)c1Cl         <                    50
2  Cc1cc(OCCCc2c(C(=O)NCc3cc(C(=O)O)n(C)c3)[nH]c3c(-c4c(C)nn(C)c4C)cccc23)cc(C)c1Cl         <                    50
3  Cc1cc(OCCCc2c(C(=O)NC(C)(C)C)[nH]c3ccccc23)cc(C)c1Cl         =                  1000
